Values compiled from ChEMBL document CHEMBL2429809.

Test: Half life in human serum at 100 uM after 48 hrs by RP-HPLC analysis
Type: ADME, cell-free
readout.kind: half-life at 100 µM (h)
Hi! Could you send only the number? It should be in h, unit omitted.

Please look at this compound and report its half-life at 100 µM: CCCC[C@@H](NC(=O)[C@@H](N)Cc1c[nH]c2ccccc12)C(=O)N[C@@H](CCC(=O)O)C(=O)N[C@@H](C)C(=O)N[C@@H](C)C(=O)N[C@@H](Cc1ccc(O)cc1)C(=O)N[C@@H](CCC(N)=O)C(=O)N[C@H](CCCCNC(=O)CCCC(=O)N[C@H]1C[C@H](O[C@H]2C[C@](O)(C(=O)CO)Cc3c(O)c4c(c(O)c32)C(=O)c2c(OC)cccc2C4=O)O[C@@H](C)[C@H]1O)C(=O)N[C@@H](Cc1ccccc1)C(=O)N[C@@H](CC(C)C)C(N)=O
2
